The following compounds are listed with their measured pEC50 values.
- tested_on: JAK1 (Homo sapiens)
- Construct: JAK1 (aa 850-1154) and TYK2 (aa 871-1187) are expressed with an N-terminally fused GST-tag; GST (N)
- assay_info: JAK1 kinase assay (HTRF, inhibition of phosphorylation of a synthetic peptide)
- conditions: catalytic domain aa 850-1154, GST-tag; 7 μM ATP (Km); read-out: JAK1 kinase inhibitory activity (EC50)
pEC50: −log10 of the molar value.

Reference set (5 entries):
O=C(c1ccon1)N1CCN(c2ncnc3[nH]ccc23)CC2(CC2)C1 : 6.00 to 7.00
O=C(c1cccnc1)N1CCCN(c2ncnc3[nH]ccc23)CC12CC2 : 6.00 to 7.00
CS(=O)(=O)Nc1ccc(C(=O)N2CCN(c3ncnc4[nH]ccc34)CC3(CC3)C2)cc1 : 6.00 to 7.00
Cc1cc(C(=O)N2CCN(c3ncnc4[nH]ccc34)CC3(CC3)C2)[nH]n1 : 6.00 to 7.00
c1nc(N2CCNC3(CC2)CC3)c2cc[nH]c2n1 : < 6.00

Prompt line: Find the recorded pEC50 belonging to N#Cc1cccc(C(=O)N2CCN(c3ncnc4[nH]ccc34)CC3(CC3)C2)c1 and report it.
Response line: 6.00 to 7.00

Prompt line: Find the recorded pEC50 belonging to O=C(c1ccncn1)N1CCN(c2ncnc3[nH]ccc23)CC2(CC2)C1 and report it.
Response line: < 6.00

Prompt line: Find the recorded pEC50 belonging to N#Cc1cccc(C(=O)N2CCCN(c3ncnc4[nH]ccc34)CC23CC3)c1 and report it.
Response line: 6.00 to 7.00

---

- tested_on: JAK1 (Homo sapiens, UniProt P23458)
- Construct: JAK1 (aa 850-1154) and TYK2 (aa 871-1187) are expressed with an N-terminally fused GST-tag; GST (N)
- Sequence (P23458 850-1154): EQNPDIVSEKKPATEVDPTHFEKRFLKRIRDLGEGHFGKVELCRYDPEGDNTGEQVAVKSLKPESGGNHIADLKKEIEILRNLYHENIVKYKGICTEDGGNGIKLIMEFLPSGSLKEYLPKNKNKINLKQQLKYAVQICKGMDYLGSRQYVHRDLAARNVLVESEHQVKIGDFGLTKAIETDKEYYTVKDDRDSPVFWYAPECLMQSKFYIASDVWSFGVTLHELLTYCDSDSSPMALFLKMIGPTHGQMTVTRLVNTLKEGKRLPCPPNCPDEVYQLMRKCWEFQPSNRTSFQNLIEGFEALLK
- assay_info: JAK1 kinase assay (HTRF, inhibition of phosphorylation of a synthetic peptide)
- conditions: catalytic domain aa 850-1154, GST-tag; 7 μM ATP (Km); read-out: JAK1 kinase inhibitory activity (EC50)
pEC50: −log10 of the molar value.
The following compounds are listed with their measured pEC50 values.

N#Cc1cccc(CC(=O)N2CCCN(c3ncnc4[nH]ccc34)CC23CC3)c1 [Example 58] : < 6.00
COc1csc(C(=O)N2CCN(c3ncnc4[nH]ccc34)CC3(CC3)C2)c1 [Example 22] : > 7.00
N#CC1(C(=O)N2CCN(c3ncnc4[nH]ccc34)CCC23CC3)CC1 [Example 44] : 6.00 to 7.00
O=C(c1ccon1)N1CCCN(c2ncnc3[nH]ccc23)CC12CC2 [Example 153] : > 7.00
CS(=O)(=O)c1ccc(CC(=O)N2CCN(c3ncnc4[nH]ccc34)CC3(CC3)C2)cc1 [Example 55] : > 7.00

Prompt line: Find the recorded pEC50 belonging to Nc1nc(N2CCN(Cc3ccccc3)CC3(CC3)C2)c2cc[nH]c2n1 [Example 68] and report it.
Response line: < 6.00

Prompt line: Find the recorded pEC50 belonging to O=C(c1n[nH]c(Cl)n1)N1CCCN(c2ncnc3[nH]ccc23)CC12CC2 [Example 232] and report it.
Response line: 6.00 to 7.00

Prompt line: Find the recorded pEC50 belonging to N#Cc1csc(C(=O)N2CCCN(c3ncnc4[nH]ccc34)CC23CC3)c1 [Example 119] and report it.
Response line: > 7.00

Prompt line: Find the recorded pEC50 belonging to N#CCOc1cccc(CC(=O)N2CCN(c3ncnc4[nH]ccc34)CC3(CC3)C2)c1 [Example 17] and report it.
Response line: 6.00 to 7.00

---

The following compounds are listed with their measured EC50 values.
- tested_on: JAK2 (Homo sapiens, UniProt O60674)
- Construct: All four purified enzymes contain only the catalytic domain; His (N)
- Sequence (O60674 849-1124 limits assumed): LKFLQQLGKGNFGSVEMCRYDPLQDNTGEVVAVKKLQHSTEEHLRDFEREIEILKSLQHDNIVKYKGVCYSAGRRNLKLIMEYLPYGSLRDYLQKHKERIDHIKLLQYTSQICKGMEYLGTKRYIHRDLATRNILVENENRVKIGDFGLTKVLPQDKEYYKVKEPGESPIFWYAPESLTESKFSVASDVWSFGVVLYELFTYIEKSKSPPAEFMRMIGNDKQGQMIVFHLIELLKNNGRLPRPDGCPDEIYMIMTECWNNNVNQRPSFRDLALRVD
- assay_info: JAK2 kinase assay (HTRF, inhibition of phosphorylation of a synthetic peptide)
- conditions: catalytic domain, His-tag; 4 μM ATP (Km); read-out: JAK2 kinase inhibitory activity (EC50)

O=C(c1n[nH]c(Cl)n1)N1CCCN(c2ncnc3[nH]ccc23)CC12CC2 [Example 232] : < 100 nM
O=C(c1cc[nH]n1)N1CCN(c2ncnc3[nH]ccc23)CC2(CC2)C1 [Example 182] : 100 to 1000 nM
CNS(=O)(=O)c1ccc(C(=O)N2CCN(c3ncnc4[nH]ccc34)CC3(CC3)C2)cc1 [Example 72] : < 100 nM
O=C(c1ccncn1)N1CCN(c2ncnc3[nH]ccc23)CC2(CC2)C1 [Example 165] : 100 to 1000 nM
Cc1cc(C(=O)N2CCCN(c3ncnc4[nH]ccc34)CC23CC3)ccn1 [Example 172] : 100 to 1000 nM
O=C(Cc1ccccc1Cl)N1CCN(c2ncnc3[nH]ccc23)CC2(CC2)C1 [Example 173] : < 100 nM

Prompt line: Find the recorded EC50 belonging to NS(=O)(=O)c1cc(C(=O)N2CCN(c3ncnc4[nH]ccc34)CC3(CC3)C2)cs1 [Example 75] and report it.
Response line: < 100 nM

Prompt line: Find the recorded EC50 belonging to CC(=O)N1CCC(C(=O)N2CCN(c3ncnc4[nH]ccc34)CC3(CC3)C2)CC1 [Example 6] and report it.
Response line: 100 to 1000 nM

---

The following molecules are listed with their measured EC50 values.
- tested_on: JAK2 (Homo sapiens)
- Construct: All four purified enzymes contain only the catalytic domain; His (N)
- assay_info: JAK2 kinase assay (HTRF, inhibition of phosphorylation of a synthetic peptide)
- conditions: catalytic domain, His-tag; 4 μM ATP (Km); read-out: JAK2 kinase inhibitory activity (EC50)

Reference set (8 entries):
CN1CCN(CC(=O)N2CCCN(c3ncnc4[nH]ccc34)CC23CC3)C1=O : 0.1 to 1 µM
Cc1cnccc1C(=O)N1CCN(c2ncnc3[nH]ccc23)CC2(CC2)C1 : 0.1 to 1 µM
Cc1cncc(C(=O)N2CCCN(c3ncnc4[nH]ccc34)CC23CC3)n1 : 0.1 to 1 µM
Cc1c(S(N)(=O)=O)csc1C(=O)N1CCN(c2ncnc3[nH]ccc23)CC2(CC2)C1 : < 0.1 µM
N#Cc1ccc(C(=O)N2CCCN(c3ncnc4[nH]ccc34)CC23CC3)s1 : < 0.1 µM
NS(=O)(=O)c1ccc(/C=C/C(=O)N2CCN(c3ncnc4[nH]ccc34)CC3(CC3)C2)cc1 : < 0.1 µM
O=C(Cc1ccc(I)cc1)N1CCN(c2ncnc3[nH]ccc23)CC2(CC2)C1 : < 0.1 µM
CNS(=O)(=O)c1csc(C(=O)N2CCN(c3ncnc4[nH]ccc34)CC3(CC3)C2)c1C : < 0.1 µM

Prompt line: Field: EC50 (JAK2 (Homo sapiens)). Entry: O=C(Cc1ccc(F)cc1)N1CCN(c2ncnc3[nH]ccc23)CC2(CC2)C1
Response line: < 0.1 µM

Prompt line: Field: EC50 (JAK2 (Homo sapiens)). Entry: O=C(c1ccc(F)cc1)N1CCCN(c2ncnc3[nH]ccc23)CC12CC2
Response line: < 0.1 µM

Prompt line: Field: EC50 (JAK2 (Homo sapiens)). Entry: CNS(=O)(=O)c1csc(C(=O)N2CCN(c3ncnc4[nH]ccc34)CC3(CC3)C2)c1
Response line: < 0.1 µM

Prompt line: Field: EC50 (JAK2 (Homo sapiens)). Entry: Cc1cc(C(=O)N2CCCN(c3ncnc4[nH]ccc34)CC23CC3)n(C)n1
Response line: < 0.1 µM

Prompt line: Field: EC50 (JAK2 (Homo sapiens)). Entry: Cc1nonc1CC(=O)N1CCN(c2ncnc3[nH]ccc23)CC2(CC2)C1
Response line: < 0.1 µM

Prompt line: Field: EC50 (JAK2 (Homo sapiens)). Entry: Cc1ccccc1C(=O)N1CCN(c2ncnc3[nH]ccc23)CC2(CC2)C1
Response line: 0.1 to 1 µM

Prompt line: Field: EC50 (JAK2 (Homo sapiens)). Entry: CCCC1=NOC(C(=O)N2CCCN(c3ncnc4[nH]ccc34)CC23CC3)C1 (centres unmarked)
Response line: 0.1 to 1 µM

Prompt line: Field: EC50 (JAK2 (Homo sapiens)). Entry: N#CCC(=O)N1CCN(c2ncnc3[nH]ccc23)CC2(CC2)C1
Response line: < 0.1 µM

Prompt line: Field: EC50 (JAK2 (Homo sapiens)). Entry: O=C(c1nc[nH]n1)N1CCN(c2ncnc3[nH]ccc23)CC2(CC2)C1
Response line: 0.1 to 1 µM

---

- tested_on: JAK1 (Homo sapiens, UniProt P23458)
- Construct: JAK1 (aa 850-1154) and TYK2 (aa 871-1187) are expressed with an N-terminally fused GST-tag; GST (N)
- assay_info: JAK1 kinase assay (HTRF, inhibition of phosphorylation of a synthetic peptide)
- conditions: catalytic domain aa 850-1154, GST-tag; 7 μM ATP (Km); read-out: JAK1 kinase inhibitory activity (EC50)
observable: EC50

Reference set (7 entries):
c1ccc(CN2CCN(c3ncnc4[nH]ccc34)CC3(CC3)C2)cc1 : > 1000 nM
S=C(Nc1ccccc1)N1CCCN(c2ncnc3[nH]ccc23)CC12CC2 : < 100 nM
CC(C)(C(=O)N1CCN(c2ncnc3[nH]ccc23)CC2(CC2)C1)c1ccc(Cl)cc1 : 100 to 1000 nM
CCN(CCC#N)C(=O)N1CCN(c2ncnc3[nH]ccc23)CC2(CC2)C1 : > 1000 nM
Cc1cc(C(=O)N2CCCN(c3ncnc4[nH]ccc34)CC23CC3)on1 : < 100 nM
O=C(Cc1ccccn1)N1CCN(c2ncnc3[nH]ccc23)CC2(CC2)C1 : 100 to 1000 nM
CCC1=NOC(C(=O)N2CCCN(c3ncnc4[nH]ccc34)CC23CC3)C1 (racemic) : 100 to 1000 nM

Prompt line: Find the recorded EC50 belonging to CN(C)S(=O)(=O)c1ccc(C(=O)N2CCN(c3ncnc4[nH]ccc34)CC3(CC3)C2)cc1 and report it.
Response line: 100 to 1000 nM
